Molecular target: BRD4 (Homo sapiens)
Assay: BRD4 IC50, second listed in Table 2
Type: binding
observable: pIC50
pIC50 here: minus log base 10 of the concentration, concentration in moles per litre.

*Q* For CC[C@@H]1C(=O)N(C)c2cnc(Nc3ccc(C(=O)NC4CCN(C)CC4)cc3)nc2N1C1CCCC1 , what is its reported pIC50?
*A* 6.64

====

Test system: 797
Assay: Cellular assay, cell viability by ATPlite, 797 cells
Assay type: cell-based
Settings: read-out: 797 (EC50, M)
observable: EC50 (M)
The answer is to be given in M; state only the numeric part.

*Q* For CC[C@@H]1C(=O)N(C)c2cnc(Nc3ccc(C(=O)NC4CCN(C)CC4)cc3OC)nc2N1C1CCCC1 [drawing 199] , what is its reported EC50?
*A* 1.07e-08
